Assay: Viability qHTS for spleen associated tyrosine kinase inhibitor (SYKi) drug resistant MV4-11 cells (AID 1963824); also: nearly all actives have a fitted effect of over 35% in size
Conditions: SYKi-resistant MV4-11 viability, CellTiter-Glo, 72 h; series mostly up to 45 µM
Procedure: Department of Medicine, Hematology/Oncology University Hospital Frankfurt, Germany. Trials have shown promising clinical activity of the selective SYK inhibitor entospletinib in patients with high expressing HOXA9/MEIS1 acute leukemias. […] 7; Detection; Luminescence; ViewLux plate reader (PerkinElmer). […] 1. Quantitative high-throughput screening (qHTS) of small molecule compounds was conducted on drug resistant SYKi MV4-11 cell line. […] 7. Luminescence was measured on a ViewLux plate reader (PerkinElmer).
Results filed as inconclusive are left out. Activity calls are given as the source filed them. Calls follow the shape of the dose curve; as a rule, active = well fitted cell-killing curve with a large enough effect; inconclusive = small, poorly fitted or top-dose-only effect, or effect the other way; inactive = no such curve, though single readings can be large or run the other way.

COMPOUND | viability, % of control
C[C@@H]1O[C@@H](O[C@@H]2[C@@H](O)[C@H](O[C@@H]3[C@@H](O)[C@@H](O)[C@H](O[C@H]4[C@H](OC(=O)[C@]56CCC(C)(C)C[C@H]5C5=CCC7[C@@]8(C)C[C@H](O)[C@H](O[C@@H]9O[C@H](C(=O)O)[C@@H](O)[C@H](O)[C@H]9O)[C@@](C)(CO)C8[C@H](O)C[C@@]7(C)[C@]5(C)C[C@H]6O)O[C@@H](CO)[C@@H]4O)O[C@H]3C)OC[C@H]2O)[C@H](O)[C@H](O)[C@H]1O (stereo not given in full) | 95.2% [at 9.25 µM] (inactive)
C[C@@H]1O[C@@H](O[C@H]2[C@H](OC(=O)[C@]34CCC(C)(C)C[C@H]3C3=CCC5[C@@]6(C)C[C@H](O)[C@H](O[C@@H]7O[C@H](CO)[C@@H](O[C@@H]8O[C@H](CO)[C@@H](O)[C@H](O)[C@H]8O)[C@H](O)[C@H]7O)[C@@](C)(CO)C6[C@H](O)C[C@@]5(C)[C@]3(C)C[C@H]4O)OC[C@H](O)[C@@H]2O)[C@H](O)[C@H](O)[C@H]1O[C@@H]1OC[C@@H](O)[C@H](O[C@@H]2OC[C@](O)(CO)[C@H]2O)[C@H]1O (stereo not given in full) | 108% [at 9.25 µM] (inactive)
C[C@@H]1O[C@@H](O[C@H]2[C@H](OC(=O)[C@]34CCC(C)(C)C[C@H]3C3=CCC5[C@@]6(C)C[C@@H](O)[C@@H](O)[C@@](C)(CO)C6[C@H](O)C[C@@]5(C)[C@]3(C)CC4)OC[C@H](O)[C@@H]2O)[C@H](O)[C@H](O)[C@H]1O[C@@H]1OC[C@@H](O)[C@H](O[C@H]2O[C@H](C)[C@@H](O)[C@H](O)[C@@H]2O)[C@H]1O (stereo not given in full) | 77.9% [at 9.25 µM] (inactive)
NCCNCCNCCNCCN | 109% [at 9.25 µM] (inactive)
CC1(CO)CC(O)C2(C)CCC3(C)C(=CCC4C5(C=O)CCC(OC6OC(C(=O)O)C(O)C(O)C6OC6OC(C(=O)O)C(O)C(O)C6O)C(C)(C)C5CCC43C)C2C1 (stereo not given) | 98.3% [at 9.25 µM] (inactive)
C=CC(C)(O)CC/C=C(\C)C(=O)O[C@@H]1[C@@H](O)[C@H](OC(C)(C=C)CC/C=C(\C)C(=O)O[C@@H]2O[C@H](CO)[C@@H](O)[C@H](O)[C@H]2O)O[C@H](CO)[C@H]1OC(=O)/C(C)=C/CCC(C)(O)C=C (stereo not given in full) | 77.6% [at 9.25 µM] (inactive)
C=C1CCC2(C(=O)OC3OC(CO)C(O)C(O)C3O)CCC3(C)C(=CCC4C5(C)CCC(OC6OC(CO)C(OC7OC(C)C(O)C(O)C7O)C(OC7OCC(O)C(O)C7O)C6O)C(C)(C)C5CCC43C)C2C1 (stereo not given) | 105% [at 9.25 µM] (inactive)
COC1CC(OC2CCC3(C)C(=CCC4C3C(OC(C)=O)C(OC(=O)/C=C/c3ccccc3)C3(C)C(C(C)O)CCC43O)C2)OC(C)C1OC1CC(OC)C(OC2OC(C)C(OC3OC(CO)C(O)C(O)C3O)C(OC)C2O)C(C)O1 (stereo not given) | 71.5% [at 9.25 µM] (inactive)
C=CC(C)(O)CC/C=C(\C)C(=O)OCC1OC(OC2CCC3(C)C(CCC4(C)C3CC=C3C5CC(C)(C)C(O)CC5(C(=O)O)CCC34C)C2(C)C)C(O)C(OC2OC(CO)C(O)C(OC3OC(CO)C(O)C(OC4OC(COC5OC(CO)C(O)C(O)C5O)C(O)C(O)C4O)C3O)C2O)C1O (stereo not given) | 108% [at 9.25 µM] (inactive)
CC(C)=CCC/C(C)=C/CC/C(C)=C/COC1OC(COC2OCC(OC3OCC(O)C(O)C3O)C(O)C2O)C(O)C(OC2OC(C)C(OC3OC(C)C(OC4OCC(OC5OC(C)C(O)C(O)C5O)C(O)C4O)C(O)C3O)C(O)C2O)C1O (stereo not given) | 96.7% [at 9.25 µM] (inactive)
CC(C)=CCC[C@](C)(O[C@@H]1O[C@H](CO)[C@@H](O)[C@H](O)[C@H]1O)[C@H]1CC[C@]2(C)[C@@H]1[C@H](O)CC1[C@@]3(C)CC[C@H](O)C(C)(C)C3[C@@H](O[C@@H]3O[C@H](CO)[C@@H](O)[C@H](O)[C@H]3O[C@@H]3OC[C@@H](O)[C@H](O)[C@H]3O)C[C@]12C (stereo not given in full) | 84.8% [at 9.25 µM] (inactive)
C[C@@H]1O[C@@H](O[C@H]2[C@H](O)[C@@H](O[C@@H]3O[C@H](CO)[C@@H](O)[C@H](O[C@@H]4O[C@H](CO)[C@@H](O)[C@H](O)[C@H]4O)[C@H]3O)[C@H](O[C@H]3CC[C@@]4(C)C(=CC[C@@H]5C4CC[C@@]4(C)C5C[C@@H]5OC6(CC[C@@](C)(CO[C@@H]7O[C@H](CO)[C@@H](O)[C@H](O)[C@H]7O)O6)[C@@H](C)[C@@H]54)C3)O[C@@H]2CO)[C@H](O)[C@H](O)[C@H]1O (stereo not given in full) | 94.3% [at 9.25 µM] (inactive)
CC(=O)OCC1OC(O[C@H]2CC[C@]34C[C@]35CC(O)[C@]3(C)[C@@H]([C@H](C)CC/C=C(\C)C(=O)O)C(O)C[C@@]3(C)C5CC[C@H]4C2(C)C)C(O)C(O)C1OC1OCC(O)C(O)C1O (stereo not given in full) | 79.7% [at 9.25 µM] (inactive)
CC1(CO)CC[C@]2(C(=O)O[C@@H]3O[C@H](CO)[C@@H](O)[C@H](O)[C@H]3O)CC[C@]3(C)C(=CCC4[C@@]5(C)CC[C@H](O[C@@H]6O[C@H](C(=O)O)[C@@H](O)[C@H](O)[C@H]6O)C(C)(C)C5CC[C@]43C)C2C1 (stereo not given in full) | 104% [at 9.25 µM] (inactive)
C[C@@H]1CC[C@]2(C(=O)O[C@@H]3O[C@H](CO[C@@H]4O[C@H](CO)[C@@H](O)[C@H](O)[C@H]4O)[C@@H](O)[C@H](O)[C@H]3O)CC[C@]3(C)C(=CCC4[C@@]5(C)CC[C@H](O)[C@](C)(C(=O)O)C5CC[C@]43C)[C@@H]2[C@]1(C)O (stereo not given in full) | 98.7% [at 9.25 µM] (inactive)

---

test: Viability qHTS for spleen associated tyrosine kinase inhibitor (SYKi) drug resistant MV4-11 cells (AID 1963824); conditions: SYKi-resistant MV4-11 viability, CellTiter-Glo, 72 h; series mostly up to 45 µM; also: nearly all actives have a fitted effect of over 35% in size
Results filed as inconclusive are left out. The source made the active and inactive calls. Calls follow the shape of the dose curve; as a rule, active = well fitted cell-killing curve with a large enough effect; inconclusive = small, poorly fitted or top-dose-only effect, or effect the other way; inactive = no such curve, though single readings can be large or run the other way.
Outcomes: 1 (yes) = active, 0 (no) = inactive

COMPOUND | LABEL VALUE
O=C(CCc1ccccc1)c1c(O)c([C@@H]2O[C@H](CO)[C@@H](O)[C@H](O)[C@H]2O)c(O)c([C@@H]2O[C@H](CO)[C@@H](O)[C@H](O)[C@H]2O)c1O | 0 (no)
Cc1noc(C)c1-c1ccc(-c2cc(C(N)=O)c(NC(N)=O)s2)c(O[C@H]2CCNC2)c1 | 1 (yes)
O=C(NO)c1ccc(C2=Nc3ccccc3Oc3ccccc32)cc1 | 1 (yes)
c1nc(NCC2CCOC2)c2cc(-c3ccc4c(c3)OCO4)ccc2n1 (stereo not given) | 1 (yes)
C[C@H](Oc1cc(-n2cnc3ccc(CN4CCN(C)CC4)cc32)sc1C(N)=O)c1ccccc1C(F)(F)F | 1 (yes)
COc1cc(C(=O)NC2CCN(C)CC2)c(F)cc1Nc1ncc2c(n1)N(C1CCCC1)CC(F)(F)C(=O)N2C | 1 (yes)
CCCCCCCCCCCCCCCC[N+](C)(C)CC | 1 (yes)
Cc1cc(O)c(-c2ccc([C@@H](C)CN(C)C)cc2)c2c1[nH]c(=O)c1sccc12 | 1 (yes)
CC(=O)Nc1c(I)cc(I)c(C(=O)O)c1I | 0 (no)
C=C1C[C@]23C[C@@]1(O)CC[C@H]2[C@@]12C=C[C@H](O)[C@@](C)(C(=O)O1)[C@H]2[C@@H]3C(=O)O | 0 (no)
COc1ccc(S(=O)(=O)N2CCc3cccc(-c4ccncc4)c32)cc1 | 1 (yes)
O=C1C(Cl)=C(N2CCOCC2)C(=O)N1c1ccc(Cl)c(Cl)c1 | 1 (yes)
CCOC(=O)Nc1nc2ccccc2[nH]1 | 1 (yes)
O=C(O)c1ccccc1S | 0 (no)
O=C1C(Cc2ccc(O)cc2)N2C(=O)CCN(C(=O)NCc3ccccc3)C2CN1Cc1cccc2ccccc12 (stereo not given) | 1 (yes)
c1ccc(-c2cnc(Nc3ccc(OCCN4CCCC4)cc3)s2)cc1 | 1 (yes)
Fc1ccc(-c2nc(C3CCNCC3)sc2-c2ccnc(NC3CC3)n2)cc1 | 1 (yes)
CCOC(=O)c1ccc(OC(=O)CCCCCN=C(N)N)cc1 | 0 (no)
CSCC1OC(n2cnc3c(N)ncnc32)C(O)C1O (stereo not given) | 0 (no)
CC(=O)OC12CC(C)C(O)C1/C=C(/COC1OC(CO)C(O)C(O)C1O)CCC1C(/C=C(\C)C2=O)C1(C)C (stereo not given) | 0 (no)
